Tested on: control sera (pooled serum of ten healthy LUMC hospital workers; commercial negative donor pooled serum from the Dutch bloodbank)
Type: binding, human
Binding of Control serum LUMC to linear peptides for assorted sequences
The answer should be a number; do not append a unit.

>>> readout_value("FLLVTLAILTALRLC")
0.5
>>> readout_value("LAFVVFLLVTLAILT")
0.5
>>> readout_value("FVSEETGTLIVNSVL")
1.1
>>> readout_value("VSEETGTLIVNSVLL")
0.5

Given TGTLIVNSVLLFLAF , state its recorded Binding of Control serum LUMC to linear peptides.
0.3

Quick one: Binding of Control serum LUMC to linear peptides of LLVTLAILTALRLCA ?
0.3
